Test system: Escherichia coli TOP10
Experiment: shrunken log2 fold change of peptide-encoding DNA abundance (4.5 h post-induction vs induction); higher = less antimicrobial activity (less host growth inhibition)
Details: time post-induction: 4.5 h; library: site-saturation at positions 5, 18, 19, 20
readout-name: shrunken log2 fold change

INSERT INTO results (residue_codes, measured) VALUES
  ('RRIRTRPPRLPRPRPRPFRDPRP', -0.205),
  ('RRIRGRPPRLPRPRPRPWWKPRP', 0.0639),
  ('RRIRARPPRLPRPRPRPWAKPRP', 0.334),
  ('RRIRVRPPRLPRPRPRPIIVPRP', 0.0713);

====

Catalogue of shrunken log2 fold change values
Test system: Escherichia coli TOP10
Test: shrunken log2 fold change of peptide-encoding DNA abundance (4.5 h post-induction vs induction); higher = less antimicrobial activity (less host growth inhibition)
Settings: time post-induction: 4.5 h; library: site-saturation at positions 5, 18, 19, 20
readout-name: shrunken log2 fold change

INSERT INTO results (residue_codes, measured) VALUES
  ('RRIRHRPPRLPRPRPRPAQPPRP', 0.1),
  ('RRIRYRPPRLPRPRPRPDLKPRP', -0.21),
  ('RRIRSRPPRLPRPRPRPMGNPRP', 0.0909),
  ('RRIRDRPPRLPRPRPRPGGFPRP', 0.134),
  ('RRIRNRPPRLPRPRPRPAIVPRP', -0.0426),
  ('RRIRWRPPRLPRPRPRPWYRPRP', -0.174),
  ('RRIRWRPPRLPRPRPRPDQEPRP', -0.00154),
  ('RRIRIRPPRLPRPRPRPWTMPRP', -0.163),
  ('RRIRPRPPRLPRPRPRPKYWPRP', -0.127),
  ('RRIRKRPPRLPRPRPRPMCGPRP', 0.0595),
  ('RRIRDRPPRLPRPRPRPPDDPRP', 0.535),
  ('RRIRVRPPRLPRPRPRPNQDPRP', -0.116),
  ('RRIRDRPPRLPRPRPRPAMEPRP', -0.0517),
  ('RRIRIRPPRLPRPRPRPPTIPRP', -0.904),
  ('RRIRARPPRLPRPRPRPIHTPRP', 0.0197),
  ('RRIRVRPPRLPRPRPRPALFPRP', 0.175),
  ('RRIRVRPPRLPRPRPRPFHYPRP', -0.318),
  ('RRIRRRPPRLPRPRPRPIECPRP', -0.00663),
  ('RRIRFRPPRLPRPRPRPTECPRP', -0.0986),
  ('RRIRYRPPRLPRPRPRPSMVPRP', -0.858),
  ('RRIRFRPPRLPRPRPRPHPDPRP', -0.262),
  ('RRIRRRPPRLPRPRPRPAIGPRP', 0.136),
  ('RRIRRRPPRLPRPRPRPMHPPRP', 0.552),
  ('RRIRKRPPRLPRPRPRPKIPPRP', 0.174),
  ('RRIRIRPPRLPRPRPRPWINPRP', -0.379),
  ('RRIRGRPPRLPRPRPRPMLWPRP', 0.737),
  ('RRIRYRPPRLPRPRPRPSAYPRP', -0.854),
  ('RRIRYRPPRLPRPRPRPNLQPRP', -0.614),
  ('RRIRLRPPRLPRPRPRPNVIPRP', -0.106),
  ('RRIRPRPPRLPRPRPRPVIAPRP', 0.0792),
  ('RRIRLRPPRLPRPRPRPPYPPRP', -0.0316),
  ('RRIRKRPPRLPRPRPRPETIPRP', 0.0906),
  ('RRIRPRPPRLPRPRPRPHVFPRP', -0.327),
  ('RRIRNRPPRLPRPRPRPKPQPRP', 0.41),
  ('RRIRGRPPRLPRPRPRPYEGPRP', -0.199),
  ('RRIRYRPPRLPRPRPRPITSPRP', 0.0314),
  ('RRIRRRPPRLPRPRPRPCPIPRP', 0.0892),
  ('RRIRIRPPRLPRPRPRPSVFPRP', -0.219),
  ('RRIRVRPPRLPRPRPRPVYAPRP', -0.00846),
  ('RRIRKRPPRLPRPRPRPMNAPRP', 0.228),
  ('RRIRARPPRLPRPRPRPPHGPRP', 0.788),
  ('RRIRKRPPRLPRPRPRPSFVPRP', -0.174),
  ('RRIRVRPPRLPRPRPRPYGTPRP', -0.13),
  ('RRIRVRPPRLPRPRPRPYSKPRP', 0.12),
  ('RRIRLRPPRLPRPRPRPYYPPRP', -0.117),
  ('RRIRARPPRLPRPRPRPGHTPRP', 0.129);

====

System: Escherichia coli TOP10;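 also: peptides expressed intracellularly from a pBAD plasmid library in pooled LB shake-flask culture, induced with 0.3% L-arabinose, DNA abundance read by NGS, three biological replicates, DESeq2 with apeglm shrinkage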
Assay: shrunken log2 fold change of peptide-encoding DNA abundance (4.5 h post-induction vs induction); higher = less antimicrobial activity (less host growth inhibition)
Details: time post-induction: 4.5 h; library: site-saturation at positions 5, 18, 19, 20
readout-name: shrunken log2 fold change

INSERT INTO results (residue_codes, readout_name, measured) VALUES
  ('RRIRCRPPRLPRPRPRPQYHPRP', 'shrunken log2 fold change', -0.425),
  ('RRIRHRPPRLPRPRPRPCKAPRP', 'shrunken log2 fold change', -0.0317),
  ('RRIRYRPPRLPRPRPRPLNWPRP', 'shrunken log2 fold change', -0.594),
  ('RRIRVRPPRLPRPRPRPYIEPRP', 'shrunken log2 fold change', -0.584),
  ('RRIRQRPPRLPRPRPRPILLPRP', 'shrunken log2 fold change', -0.0814),
  ('RRIRTRPPRLPRPRPRPIYLPRP', 'shrunken log2 fold change', -0.224),
  ('RRIRYRPPRLPRPRPRPVIMPRP', 'shrunken log2 fold change', -0.222),
  ('RRIRVRPPRLPRPRPRPVQVPRP', 'shrunken log2 fold change', -0.269),
  ('RRIRTRPPRLPRPRPRPVVHPRP', 'shrunken log2 fold change', -0.0314),
  ('RRIRYRPPRLPRPRPRPMGEPRP', 'shrunken log2 fold change', 0.0325),
  ('RRIRYRPPRLPRPRPRPDVSPRP', 'shrunken log2 fold change', -0.248),
  ('RRIRFRPPRLPRPRPRPYNVPRP', 'shrunken log2 fold change', -0.138),
  ('RRIRPRPPRLPRPRPRPWCHPRP', 'shrunken log2 fold change', -0.563),
  ('RRIRTRPPRLPRPRPRPIEEPRP', 'shrunken log2 fold change', 0.0678),
  ('RRIRCRPPRLPRPRPRPFQGPRP', 'shrunken log2 fold change', 0.203),
  ('RRIRMRPPRLPRPRPRPKQIPRP', 'shrunken log2 fold change', 0.371),
  ('RRIRLRPPRLPRPRPRPWWDPRP', 'shrunken log2 fold change', -0.305),
  ('RRIRCRPPRLPRPRPRPTQNPRP', 'shrunken log2 fold change', 0.803),
  ('RRIRIRPPRLPRPRPRPNCVPRP', 'shrunken log2 fold change', -0.376),
  ('RRIRIRPPRLPRPRPRPACPPRP', 'shrunken log2 fold change', -0.146),
  ('RRIRYRPPRLPRPRPRPKDNPRP', 'shrunken log2 fold change', -0.75),
  ('RRIRMRPPRLPRPRPRPTQRPRP', 'shrunken log2 fold change', 0.968),
  ('RRIRVRPPRLPRPRPRPAINPRP', 'shrunken log2 fold change', -0.259),
  ('RRIRYRPPRLPRPRPRPKEKPRP', 'shrunken log2 fold change', -0.0829),
  ('RRIRSRPPRLPRPRPRPKCWPRP', 'shrunken log2 fold change', 0.359),
  ('RRIRSRPPRLPRPRPRPIGSPRP', 'shrunken log2 fold change', 0.136),
  ('RRIRRRPPRLPRPRPRPRLNPRP', 'shrunken log2 fold change', 0.522),
  ('RRIRPRPPRLPRPRPRPDKNPRP', 'shrunken log2 fold change', -0.308),
  ('RRIRQRPPRLPRPRPRPTCPPRP', 'shrunken log2 fold change', -0.0183),
  ('RRIRDRPPRLPRPRPRPITRPRP', 'shrunken log2 fold change', 0.0173),
  ('RRIRSRPPRLPRPRPRPAYHPRP', 'shrunken log2 fold change', -0.1),
  ('RRIRPRPPRLPRPRPRPAFEPRP', 'shrunken log2 fold change', 0.139),
  ('RRIRNRPPRLPRPRPRPTKVPRP', 'shrunken log2 fold change', -0.153),
  ('RRIRCRPPRLPRPRPRPIHLPRP', 'shrunken log2 fold change', -0.193),
  ('RRIRKRPPRLPRPRPRPFHTPRP', 'shrunken log2 fold change', -0.0289),
  ('RRIRWRPPRLPRPRPRPYYMPRP', 'shrunken log2 fold change', -0.258),
  ('RRIRARPPRLPRPRPRPEPRPRP', 'shrunken log2 fold change', 0.679),
  ('RRIRPRPPRLPRPRPRPINHPRP', 'shrunken log2 fold change', -0.619),
  ('RRIRTRPPRLPRPRPRPQKFPRP', 'shrunken log2 fold change', -0.632),
  ('RRIRNRPPRLPRPRPRPTIAPRP', 'shrunken log2 fold change', -0.277);
